# Run Description: reduction of polyQ htt aggregates in cells – imaging, exon1htt(103Q)mCFP cells, high-content imaging, primary screen (AID 483);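 further: compound exposure lasted 3 days before fixation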
# Conditions: exon1htt(103Q)mCFP cell line, aggregate imaging, at 2 µM; stronger effect = higher value
The entries below are paired with their reported inhibition of aggregation.
Provide the reading as a plain figure in %.

Previously resolved entries follow.
Quick note, inhibition of aggregation for Cc1nnc(C)c2c(C)n(-c3ccc(Br)cc3)c(C)c12 landed at -3.9

Quick note, inhibition of aggregation for Cc1ccc(-n2ncc3c(Nc4c(C)n(C)n(-c5ccccc5)c4=O)ncnc32)c(C)c1 landed at 6.8

Quick note, inhibition of aggregation for COc1cc(C(=O)Nc2cc(Cl)ccc2C)c(-n2cnnn2)cc1OC landed at 15.8

Quick note, inhibition of aggregation for COc1ccc(-c2coc3c(CN4CCCCC4)c(O)c(CN4CCCCC4)c(O)c3c2=O)cc1 landed at 8.6

Quick note, inhibition of aggregation for COc1cccc(C(=O)Nc2ccc(N(C)C)cc2)c1OC landed at 1.4

Continuing:
Quick note, inhibition of aggregation for CCn1c(=O)cc(SCC(=O)Nc2ccc3c(c2)OCO3)c2ccccc21 landed at 1.5

Quick note, inhibition of aggregation for C[C@]12C=CC(=O)C=C1CC[C@H]1[C@@H]3C[C@@H](O)[C@](O)(C(=O)CO)[C@@]3(C)C[C@H](O)[C@@]12F landed at 23.7

Quick note, inhibition of aggregation for COc1ccc(OC)c(C2=NOC(C(=O)Nc3cccnc3)C2)c1 (stereo not given) landed at -1.9

Quick note, inhibition of aggregation for O=C(NCc1ccco1)Nc1ccc2nsnc2c1 landed at -22.1

Quick note, inhibition of aggregation for COC(=O)c1c(NC(=O)c2ccc(S(=O)(=O)N3CCOCC3)cc2)sc2c1CCN(C)C2 landed at 3
